These data points were gathered from PubChem BioAssay (NCATS).

# assay_protocol: Cell Viability - LYMP1-003 - Assay at 40 hr (AID 964); note: % is set by controls: 0 for no effect and ±100 for the full control effect; nearly all actives have a fitted effect of over 60% in size
# assay_setup: LYMP1-003 lymphoblastoid viability; series mostly up to 92.2 µM
Inconclusive results are not listed. The source made the active and inactive calls. Calls come from the whole dose curve; as a rule, active = well fitted cell-killing curve with a large enough effect; inconclusive = small, poorly fitted or top-dose-only effect; inactive = flat fitted curve, though single readings scatter.
// allowed return values: 1 (yes) for active, 0 (no) for inactive

> print(dat)
                        compound     cat
1  Nc1cccc2c(=O)[nH][nH]c(=O)c12  0 (no)

Challenge: Query: recorded result category for Nc1cc(Cl)c(N)c(Cl)c1 in this test
Response given: 0 (no)

Challenge: Recorded test call requested for O=c1[nH][nH]c(=O)c2cc([N+](=O)[O-])ccc12
Response given: 0 (no)

Challenge: Lab log entry: CCOc1cccc(N)c1 — outcome as called in the assay?
Response given: 0 (no)

Challenge: Please let me know the test result on file for CCN(Cc1ccccc1)c1ccccc1 .
Response given: 0 (no)

Challenge: What was the test verdict on O=C(Cl)c1c(Cl)cccc1Cl ?
Response given: 0 (no)

Challenge: Lab log entry: Cc1ccc(C(C)(C)C)cc1 — outcome as called in the assay?
Response given: 0 (no)

---

# measured_target: Nuclear receptor subfamily 1 group I member 2 (Rattus norvegicus) (UniProt Q9R1A7)
# Sequence (Q9R1A7 whole entry, looked up): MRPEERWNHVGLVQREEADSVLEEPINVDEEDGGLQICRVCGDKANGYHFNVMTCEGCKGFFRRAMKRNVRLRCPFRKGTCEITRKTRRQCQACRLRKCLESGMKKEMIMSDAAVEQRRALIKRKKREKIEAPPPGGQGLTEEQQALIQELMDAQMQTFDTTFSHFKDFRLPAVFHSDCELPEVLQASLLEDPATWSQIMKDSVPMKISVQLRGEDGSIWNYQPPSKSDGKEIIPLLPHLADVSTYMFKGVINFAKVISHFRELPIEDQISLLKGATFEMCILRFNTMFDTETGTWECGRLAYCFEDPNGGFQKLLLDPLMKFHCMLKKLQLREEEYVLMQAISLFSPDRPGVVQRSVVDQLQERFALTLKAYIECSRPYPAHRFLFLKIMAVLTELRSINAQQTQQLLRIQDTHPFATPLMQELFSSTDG
# assay_protocol: qHTS assay for small molecule activators of the rat pregnane X receptor (rPXR) signaling pathway (AID 651751); note: 0% is about no effect
# assay_setup: rPXR reporter cells, luciferase (One-Glo), 24 h
experimental_endpoint: max response (%)
Answer format: numeric, % implied, no suffix.

Some compounds with recorded max response:
> print(dat)
               compound  measurement.units  obs.value
 1  Oc1c(Cl)ccc(Cl)c1Cl                  %      0.125
 2         CC(C)(C)OC=O                  %       3.48
 3       CC(=O)c1ccccn1                  %       2.33
 4              CCCCCCO                  %       2.06
 5          C=Cc1ccccn1                  %       2.42
 6             CCC(C)=O                  %       4.73
 7      Cc1cc(C)cc(N)c1                  %        9.8
 8      CC(=O)OCc1ccco1                  %      -1.61
 9  Nc1c(Cl)cc(Cl)cc1Cl                  %      -2.23
10         Cc1ccc(C)cc1                  %      0.288

Now for a further compound.
Challenge: Answer with the recorded max response for the compound listed here: CC(=O)c1cc(C)oc1C
Response given: 1.56

---

Reported values of max response for individual entries
# measured_target: Retinoic acid receptor RXR-alpha (Homo sapiens) (UniProt P19793)
# Sequence (P19793 whole entry, looked up): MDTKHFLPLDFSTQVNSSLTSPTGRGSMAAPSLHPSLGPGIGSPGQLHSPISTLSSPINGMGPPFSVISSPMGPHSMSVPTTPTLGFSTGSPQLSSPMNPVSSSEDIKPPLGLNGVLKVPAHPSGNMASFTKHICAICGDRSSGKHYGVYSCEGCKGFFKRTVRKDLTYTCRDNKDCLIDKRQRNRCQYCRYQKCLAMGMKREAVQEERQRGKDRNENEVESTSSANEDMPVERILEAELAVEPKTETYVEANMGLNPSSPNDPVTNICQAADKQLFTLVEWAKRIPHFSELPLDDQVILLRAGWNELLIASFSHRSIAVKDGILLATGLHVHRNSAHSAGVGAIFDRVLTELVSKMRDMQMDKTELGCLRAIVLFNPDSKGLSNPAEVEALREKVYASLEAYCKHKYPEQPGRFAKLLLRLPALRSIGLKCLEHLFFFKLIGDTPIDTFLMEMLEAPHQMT
# assay_protocol: qHTS assay for small molecule antagonists of retinoid X receptor alpha signaling (AID 588546);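 note: cells stimulated with 9-cis-retinoic acid as agonist; % is set by controls: 0 for no effect and ±100 for the full control effect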
# assay_setup: HEK293T RXRa-UAS-bla, beta-lactamase ratio, antagonist mode
Records with an inconclusive call do not appear. Active and inactive are the calls of the source. Calls come from the whole dose curve; as a rule, active = well fitted inhibition curve with a large enough effect in the signal ratio, with a control signal flat (not every such curve was filed as active); inconclusive = small, poorly fitted or top-dose-only effect, or effect the other way, or a change in a side signal; inactive = no such curve, though single readings can be large or run the other way; the % refers to the signal ratio.

Here is how some compounds turned out for max response.
> print(dat)
            mol.smiles  experimental.endpoint          obs.value
1  Cc1ccc2oc(=O)ccc2c1           max response  -15.9% (inactive)
2      COC(=O)c1ccccc1           max response    4.4% (inactive)

# ---- query compound ----
Challenge: Supply max response value. Item: O=C(O)c1ccccc1C(=O)O
Response given: -5% (inactive)
